test-name: soluble on expression in E. coli; label from the status in PepcDB or PDB records
reported-endpoint: soluble on expression in E. coli

Take a look at these entries with their results.
chain-sequence	reported-measurement
MRLTEEEVQALLEKADGWKLADERWIVKKYRFQDYLQGIEFVRRIAAISENANHHPFISIDYKLITVKLSSWRAKGLTKLDFDLAKQYDEVYNQMKQGEGE	soluble
PRTVKELTVSAGDNLIITLPDNEVELKAFVAPAPPVETTYNYEWNLISHPTDYQGEIKQGHKQTLNLSQLSVGLYVFKVTVSSENAFGEGFVNVTVKPAR	soluble
MATVTTHASASIFRPCTSKPRFLTGSSGRLNRDLSFTSIGSSAKTSSFKVEAKKGEWLPGLASPDYLTGSLAGDNGFDPLGLAEDPENLKWFVQAELVNGRWAMLGVAGMLLPEVFTKIGIINVPEWYDAGKEQYFASSSTLFVIEFILFHYVEIRRWQDIKNPGSVNQDPIFKQYSLPKGEVGYPGGIFNPLNFAPTQEAKEKELANGRLAMLAFLGFVVQHNVTGKGPFENLLQHLSDPWHNTIVQTFN	soluble
MKVLFVYAGMHPAHEPFVEAVKADVYPAYHKDVNGFVKFVEGLKMAREYPDYDVYILEGGMPMFPMYLRKKLFRKNGFVVGLLADETFINLVERQPHYSTAETLIHRISAKVLDAAIAVSPFVKEYAEKIIDVPIEVVRPAIPKDSYEKLGKVKPNLESNVIVSVGQPRFSIGMDVLVEQFRIAKKQIPDLELWIVGKGHPKEYERVEGVKVLGYVEDLSEVFEEASLFVHAGRCSAYPVATLEAMRAGLPVVVSTMTGTKEIVERVEEQVKREFGLNYDGNKFIQPLNRIFEGIVEYFKLDSEVRRIMSELYKKESEEFEPGKRGREFKEKFKKLLANFNNKEVP	not soluble
MGSDKIHHHHHHMKQLFDNVSAMCSKLTTKKYSTSFSLGIHFLHKKLHDPVYAIYGFVRFADEIVDSFHGYDKKRLMAQFRRDTAFALQDKISLNPILNSFQHVVHTYNIEWELIDTFLKSMEMDLDQSAHNEQSYKEYIIGSAEVVGLMCLRVFVKGDVDMYEKQKPHAMSLGAAFQKVNFLRDAKEDFDSLGRTYFPDVSMEKFDRHIKQNIESDIEKDFQHALIGIKQLPAESRLGVYLAYIYYKNLFHKIKSIPPERMLKERIRIPNLNKFALLFQCYFRNQFNIL	not soluble

Ask: Please list soluble on expression in E. coli recorded for the sequence SEAIQTLLDRKLPDEELEQINQACLSVKGVLGVHQLRTRMSGPTRFIQLHLELDDNLRLIEAHYIADKVEDNLLALFPEADVLIHQDPLSVVFGPEKEQKAQDW
Reply: not soluble

Ask: Indicate the recorded soluble on expression in E. coli value for this sequence: MKIAIIGAGIGGLTAAALLQEQGHTIKVFEKNESVKEIGAGIGIGDNVLKKLGNHDLAKGIKNAGQILSTMTVLDDKDRLLTTVKLKSNTLNVTLPRQTLIDIIKSYVKDDVIFTNHEVTHIDNETDKVTIHFAEQESEAFDLCIGADGIHSKVRQSVNADSKVLYQGYTCFRGLIDDIDLKHPDCAKEYWGRKGRVGIVPLLNNQAYWFITINSKENNHKYSSFGKPHLQAYFNHYPNEVREILDKQSETGILLHNIYDLKPLKSFVYGRTILLGDAAHATTPNMGQGAGQAMEDAIVLVNCFNAYDFEKALQRYDKIRVKHTAKVIKRSRKIGKIAQYRSRLFVAVRNRIMKMMPNALAAGQTKFLYKSKEKLEHHHHHH
Reply: soluble

Ask: Please report soluble on expression in E. coli for the following sequence: MGSDKIHHHHHHMRKLALPLVAFLTGGLAACSSSDVVESQGITVENCGSVVNFDSPPSHIALMKSAAVPTLDALGVLDRVVTKAGAFPAGYYDADLSERVTDIPTLSNKIDASGHVLISKEVVVAANPDIVFGETDTINRASMASSNIPVVEEPAFCGSIDGDVSFDDVWSQISTYGTIFDRSTEADAYIATLKERVSEVSSRVTDSGKTVAVLYPTIGGGVTYAYGRGSMANPLVAEAGLTNVFADQSERVFEVTAEELISRNPDYIIVLHSDGSPSDIVAEVGNLQGSSALTALSENKVLPILMNFAEPPTPLAVDGLEKIIDFVETHP
Reply: not soluble

Ask: Specify soluble on expression in E. coli for MQEAIITSTVDLTSGGCNACGLVEDTVYTLAMNGVDIPLDGLTVAHLVSAIVARNGFKQELQMDMLDDEYILYRKEDTTVTFKEAYNHLSYDNGSEKIQSKNKLEDLPKLFEQVNQILTTVFGIGTVNFIIE and stop.
Reply: not soluble

Ask: Using the record for MNASTSSPSQQLQQAINSTIDKECAVCYSEMILPTTIPSCGHKFCFICLKGVSVSNNGDCPICRGPIDSQIFKKPLQAVDLKMDIPGTPSAAAPDPVVKQEVDDEDVKPDVKKLQEELKKQQAAAAAQKMFWLYRGRHQGWWRFDPRIEKEIEEAFTHQMPMTEVTICGNPYIVDFSQMCQYPKNQSNYSRNVKYGSRLKVLKILAKIDRKSAF , state its measured soluble on expression in E. coli.
Reply: not soluble

Ask: State its soluble on expression in E. coli for this sequence: MAIWQGASRRLSTGAKVWRAAKKHKREMGRPAAETQVSDKIKRKIVRCRGANLKVKLEKTNYANVFDQANKVCKKVVVTNVIDNKANKHYIRRNVMTKGAIIETEMGKAKVTSRPGQDGVVNAILLTELEHHHHHH
Reply: soluble

Ask: Check the records and state soluble on expression in E. coli for MRRSNEPTKRKSTTGHGDYAEHKKRKSMSKEATPVLEENLTPDVMINNLHEIVTQILENQELPETAIIELEGFDATAATMEEYMQKREETRKLVTDSEFFDQKTELNLSVASLAGAQVEVDKRVTTRGMSRKLHDECGINEKDILYQGLDYHGTESRVSKELRDSRQASIIESCVDFQKQIQWKIGIMEKVKAKSGRSYPMSDGPSVRTRGGQDKQREEMKKQQKELEKSKKQRKTRAAGEQDPFKTPQKKIEFNALDERRIIENYQLEVASEIRTHRPFLSRSIAPVPFNIDILDDEEEEMEIS
Reply: not soluble

Ask: Please report the measured soluble on expression in E. coli for MSLDVTNRIERALTEALNQADMAGCPPRLAAAMRSAVFPRGARVRPRLCHSVALACGEDNPGITEAAGAALELMHCASLIHDDLPCFDGADLRRGRPSVHKAFGEPLAVLAGDAMIVLAFQTIARAEGQADRLLKLTQIIGGAVGVPFGIVAGQAWECETEINLAHYHRSKTGALFVAATAMGAASAGSDPEPWRMVGEKIGEAYQVADDLRDAAADVEEIGKPVGQDVAHDRPSAVREMGIDGAIYHLKSLVRGAVEAMPECTNGNELRSLIMSEATRLVPAEGHHHHHH
Reply: soluble
